Compiled pIC50 measurements on Oxysterols receptor LXR-alpha (Homo sapiens, UniProt Q13133) taken from the literature.
pIC50: −log10 of the molar value.
Is pIC50 at least 6? Then fulfilled. If not, not fulfilled.

Below, 6 compounds whose answers are already recorded.
| COMPOUND | SYSTEM TESTED | ASSIGNED LABEL |
| --- | --- | --- |
| CC(C)(C)c1nc2c(C(F)(F)F)cccn2c1-c1cccc(Oc2cccc(S(=O)(=O)CCCO)c2)c1 | Oxysterols receptor LXR-alpha (Homo sapiens, UniProt Q13133) | fulfilled |
| CCS(=O)(=O)c1cccc(Oc2cccc(-n3c(C(F)(F)F)nc4c(C(F)(F)F)cccc43)c2)c1 | Oxysterols receptor LXR-alpha (Homo sapiens, UniProt Q13133) | not fulfilled |
| Cc1cc(C(=O)O)ccc1C#Cc1cccc(-c2c(Cc3ccccc3)cnc3c(C(F)(F)F)cccc23)c1 | Oxysterols receptor LXR-alpha (Homo sapiens, UniProt Q13133) | fulfilled |
| Cc1cc(CC(=O)O)cc(NCc2cccc(-c3c(C)cnc4c(C(F)(F)F)cccc34)c2)c1C | Oxysterols receptor LXR-alpha (Homo sapiens, UniProt Q13133) | not fulfilled |
| Cc1nc2c(C(F)(F)F)cccc2n1-c1cccc(Oc2ccc(S(=O)(=O)CCCO)cc2)c1 | Oxysterols receptor LXR-alpha (Homo sapiens, UniProt Q13133) | not fulfilled |
| Cc1nc2c(C(F)(F)F)cccc2nc1-c1cc(Oc2cc(F)cc(S(C)(=O)=O)c2)ccc1Cl | Oxysterols receptor LXR-alpha (Homo sapiens, UniProt Q13133) | fulfilled |

Qu. Could you verify whether the entry O=C(O)c1ccc(NCc2cccc(-c3c(Cc4ccccc4)cnc4c(C(F)(F)F)cccc34)c2)cc1 shows pIC50 of no less than 6?
Ans. fulfilled

Qu. Could you verify whether the entry O=C(O)c1ccccc1NCc1cccc(-c2c(Cc3ccccc3)cnc3c(C(F)(F)F)cccc23)c1 shows pIC50 of no less than 6?
Ans. fulfilled

Qu. Could you verify whether the entry Cc1cc(NCc2cccc(-c3ccnc4c(C(F)(F)F)cccc34)c2)c(C)cc1CC(=O)O shows pIC50 of no less than 6?
Ans. not fulfilled

Qu. Could you verify whether the entry Cc1nc2c(C(F)(F)F)cccc2n1-c1cccc(Oc2cccc(S(=O)(=O)CCC(C)(C)O)c2)c1 shows pIC50 of no less than 6?
Ans. not fulfilled

Qu. Could you verify whether the entry Cc1cc(C(=O)O)c(C)cc1NCc1cccc(-c2c(Cc3ccccc3)cnc3c(C(F)(F)F)cccc23)c1 shows pIC50 of no less than 6?
Ans. fulfilled

Qu. Could you verify whether the entry Cc1nc2c(C(F)(F)F)cccc2n1-c1cccc(Oc2ccc(S(C)(=O)=O)cc2)c1 shows pIC50 of no less than 6?
Ans. not fulfilled

Qu. Could you verify whether the entry CS(=O)(=O)c1cc(-c2ccc(C3CN(S(=O)(=O)c4ccccc4)C(=O)N3c3ccccc3)cc2)ccc1CO (stereo not drawn) shows pIC50 of no less than 6?
Ans. fulfilled

Qu. Could you verify whether the entry Cc1nc2ccccc2nc1-c1cc(Oc2cccc(S(C)(=O)=O)c2)ccc1Cl shows pIC50 of no less than 6?
Ans. not fulfilled

Qu. Could you verify whether the entry CC(C)CN(Cc1ccc(-c2cccc(S(C)(=O)=O)c2)o1)S(=O)(=O)c1ccccc1Cl shows pIC50 of no less than 6?
Ans. not fulfilled

Qu. Could you verify whether the entry CS(=O)(=O)c1cccc(-c2cccc(Oc3cnc4c(Cl)cccc4n3)c2)c1 shows pIC50 of no less than 6?
Ans. not fulfilled

Qu. Could you verify whether the entry CC(C)CN(Cc1cncc(-c2cccc(S(C)(=O)=O)c2)c1)S(=O)(=O)c1ccccc1Cl shows pIC50 of no less than 6?
Ans. not fulfilled

Qu. Could you verify whether the entry O=C(O)Cc1cccc2c(NCc3cncc(-c4ccnc5c(C(F)(F)F)cccc45)c3)cccc12 shows pIC50 of no less than 6?
Ans. not fulfilled
